# Tested on: Saccharomyces cerevisiae
# Assay Text: protein stability index of tFT-peptide fusion (C-terminal peptide) (PSI (0-1 scale)); higher = more stable (slower turnover)
# Measurement Setup: genetic background: wild type; temperature: 30 C
# Lookup of reported protein stability index keyed by entry
Simply state the number, no unit and no words.

Task: So what's the measured protein stability index for this one? VAWFFFAYAFFM
Result: 0.321

Task: # query: protein stability index of entry RYLLCSSVESAV
Result: 0.639

Task: Look up protein stability index: EGGGAGGLMRPE
Result: 0.65

Task: Item VGCHISAFSDLI has what recorded protein stability index?
Result: 0.762

Task: Which measured protein stability index value corresponds to PPLPPRPTPPPR ?
Result: 0.711

Task: Give the measured protein stability index of PPPASRPPHPTL .
Result: 0.746

---

protein stability index overview
# Test system: Saccharomyces cerevisiae
# Assay Text: protein stability index of tFT-peptide fusion (C-terminal peptide) (PSI (0-1 scale)); higher = more stable (slower turnover)
# Measurement Setup: genetic background: wild type; temperature: 30 C
Form: value (number only, do not type unit).

Look over these answered cases.
* IIAGVWFLEILG | 0.479
* PLSSPFPPSHPL | 0.763

Task: Item under review: KGGSVNRLSQVR . Reported protein stability index?
Result: 0.671

Task: State the recorded protein stability index for this entry: APSPSPPPPLPN
Result: 0.685

Task: Which protein stability index is listed for PHRPRDFALTPS ?
Result: 0.69

Task: Need protein stability index of EVYTWTGNMWNI , thanks.
Result: 0.673

Task: # get_value(readout='protein stability index', item= GVARSMAGWARC )
Result: 0.703

---

# System: Saccharomyces cerevisiae
# Assay Text: protein stability index of tFT-peptide fusion (C-terminal peptide) (PSI (0-1 scale)); higher = more stable (slower turnover)
# Measurement Setup: genetic background: wild type; temperature: 30 C
Measured Quantity: protein stability index
The reply should be a number, written without any unit.

// below: answered sequences
* IAFPQRKYAIKA [RPL35A C-terminal 12 aa] | 0.33
* IRDEGLNNLDTA [YPL257W C-terminal 12 aa] | 0.704
* KLLLNELRSFCV [PCL10 C-terminal 12 aa] | 0.694

Task: Test system Saccharomyces cerevisiae; read-out protein stability index; what value for GKFKSAVFEHAG [SRV2 C-terminal 12 aa] ?
Result: 0.71

Task: Recorded protein stability index for FMGGFLSKGNKR [ROG3 C-terminal 12 aa] with Saccharomyces cerevisiae, please?
Result: 0.683

Task: Saccharomyces cerevisiae / protein stability index / EGDIEPLKRILK [UBP2 C-terminal 12 aa] : value?
Result: 0.675

Task: Param readout= protein stability index; system= Saccharomyces cerevisiae; entry= IYLLSDYEKDNI [CMR2 C-terminal 12 aa] ; returns value.
Result: 0.684

Task: Give Saccharomyces cerevisiae protein stability index for DEKLHSHNASPN [YNL198C C-terminal 12 aa]
Result: 0.697

Task: Lab note: need protein stability index for EVSQYAAFFQDD [CTM1 C-terminal 12 aa] on Saccharomyces cerevisiae, anyone have it?
Result: 0.712

Task: # value lookup — system Saccharomyces cerevisiae, readout protein stability index, item KLVWTLQSLCMR [YEL032C-A C-terminal 12 aa]
Result: 0.681

Task: # value lookup — system Saccharomyces cerevisiae, readout protein stability index, item QHLKTHKKHGDF [MSN4 C-terminal 12 aa]
Result: 0.698

Task: Entry SLDGDTYFIIRS [YDL158C C-terminal 12 aa] , system Saccharomyces cerevisiae: what protein stability index was measured?
Result: 0.688

---

List of protein stability index values.
# Test system: Saccharomyces cerevisiae
# Assay Text: protein stability index of tFT-peptide fusion (C-terminal peptide) (PSI (0-1 scale)); higher = more stable (slower turnover)
# Measurement Setup: genetic background: wild type; temperature: 30 C

Solved entries:
• LLPTRPAPHLSL = 0.704
• ERASGNWQVYKG = 0.639
• FVGVLVLCVCRC = 0.278

Task: Data request, read-out protein stability index, for VPPLVSSSSLLL
Result: 0.636

Task: Give its protein stability index value. Item: THPTCPLHLLPT
Result: 0.699

Task: For HCPIPWASLNCL , what is its reported protein stability index?
Result: 0.665

Task: Would you mind telling me what protein stability index value was observed for KTKKKQKQHRKQ ?
Result: 0.686

---

# Test system: Saccharomyces cerevisiae
# Assay Text: protein stability index of tFT-peptide fusion (C-terminal peptide) (PSI (0-1 scale)); higher = more stable (slower turnover)
# Measurement Setup: genetic background: wild type; temperature: 30 C
Recorded protein stability index for the following sequences

Sample answers from the record:
- GNLPQIIYSKVQ: 0.609
- PGNAEQGIAVHL: 0.626
- LVLALTPFLHSF: 0.399
- GGGGGGVSLGGR: 0.696
- TCFYYVGGEKCM: 0.665

Task: Need protein stability index of DGSFWKGQGAGV , thanks.
Result: 0.671

Task: I would be grateful if you could share the reported protein stability index for YFSSGGITVSLC .
Result: 0.664

Task: What does the data say about its protein stability index? Entry: LFFFPRRLSPPT
Result: 0.722

Task: I would be grateful if you could share the reported protein stability index for RGPLNPNWPPTD .
Result: 0.7

Task: Quick check: protein stability index of FCRTSGSVGDHV ?
Result: 0.721

Task: Recorded protein stability index for SVSDPLPPRQTV , please?
Result: 0.721

Task: Fill in the blank: the reported protein stability index of LLLPPRLPNISP is ____.
Result: 0.709

Task: What value of protein stability index has been reported for the following sequence? VRFVVRSVSSFV
Result: 0.597

Task: protein stability index for MRSTFFFLQHRH ?
Result: 0.614

Task: Query: protein stability index; subject: SPLGPLGPPSET
Result: 0.693

Task: Please give the measured protein stability index for this sequence: AGGWVGAEGCGG
Result: 0.763

Task: Entry under review: DRHLNRPRVKKR . Reported protein stability index?
Result: 0.758

Task: # get_value(readout='protein stability index', item= YVVWGGVQGSVL )
Result: 0.747

Task: What does the data say about its protein stability index? Entry: PPISVIRKPTVL
Result: 0.667

---

# reported protein stability index; entries follow
# System: Saccharomyces cerevisiae
# Assay Text: protein stability index of tFT-peptide fusion (C-terminal peptide) (PSI (0-1 scale)); higher = more stable (slower turnover)
# Measurement Setup: genetic background: wild type; temperature: 30 C
// return just the number, without any unit appended

The examples below pair each entry with its known result.
- LYQCRMPCLYSI [YGL193C C-terminal 12 aa]: 0.586
- QRVIKPSSALQF [ECM7 C-terminal 12 aa]: 0.682
- KDVIVDHHSDLN [SAP4 C-terminal 12 aa]: 0.701
- KNKTKQNQAQSW [LTO1 C-terminal 12 aa]: 0.679
- ETPSQTSQEATQ [ERG6 C-terminal 12 aa]: 0.722
- KAELDRYKRENQ [SEM1 C-terminal 12 aa]: 0.709
- KKLRQPKEGETF [MMS2 C-terminal 12 aa]: 0.674
- DDNEKALTWEEL [ATG19 C-terminal 12 aa]: 0.698

Task: Would you mind telling me what protein stability index value was observed for AKTKFCCCIPFK [YOR376W-A C-terminal 12 aa] ?
Result: 0.721

Task: Quick one: protein stability index for HSVWSQSTINND [YML034C-A C-terminal 12 aa] ?
Result: 0.702

Task: # input sequence: DLTKKPKKITFD [DBP3 C-terminal 12 aa] ; wanted: its protein stability index
Result: 0.638

Task: Bench note: what protein stability index did NPEATTKPKPRL [PTC5 C-terminal 12 aa] show?
Result: 0.81

---

# System: Saccharomyces cerevisiae
# Assay Text: protein stability index of tFT-peptide fusion (C-terminal peptide) (PSI (0-1 scale)); higher = more stable (slower turnover)
# Measurement Setup: genetic background: das1 deletion; temperature: 37 C
Entries and their protein stability index

• VCALHSAPLLIF = 0.496

Task: Endpoint output: protein stability index of VVVLFGRLVVIC . Value?
Result: 0.598

Task: # get_value(readout='protein stability index', item= GLCGVVVGCWVR )
Result: 0.484

Task: Name the recorded protein stability index for LCHILAIIRRGA .
Result: 0.687

Task: // lookup protein stability index for WRCLHLVYLFFH
Result: 0.531

---

# Test system: Saccharomyces cerevisiae
# Assay Text: protein stability index of tFT-peptide fusion (C-terminal peptide) (PSI (0-1 scale)); higher = more stable (slower turnover)
# Measurement Setup: genetic background: wild type; temperature: 30 C
Measured Quantity: protein stability index
Please give the numeric answer without any surrounding text.

Example results:
• VCALHSAPLLIF = 0.462
• PSSCSPPPSSPS = 0.692
• SLPPAHPPPPRP = 0.693
• PSPPTPHPPCRS = 0.746
• VTIFAGIGQFWF = 0.706

Task: Provide value of protein stability index for this record tested with Saccharomyces cerevisiae: STRPPVRYHGAS
Result: 0.728

Task: Saccharomyces cerevisiae / protein stability index / LGMMIPQILDFV : value?
Result: 0.586

Task: Param readout = protein stability index; param system = Saccharomyces cerevisiae; param query = LLSPLRPPPFAP ; response: value
Result: 0.698

Task: // lookup protein stability index | system=Saccharomyces cerevisiae | key= LYDSNLILSIPC
Result: 0.617
